assay: Phase I dose-escalating study, plasma pharmacokinetics in patients with solid tumor
Type: in vivo, human
conditions: human, plasma, 100 mg, 100 mg QD (4/1), C1D1 (n = 7), plasma; read-out: tmax, mean (% CV)

compound.string | Tmax / h
Cc1[nH]c(/C=C2\C(=O)Nc3ccc(F)cc32)c(C)c1C(=O)NC[C@H](O)CN1CCOCC1 | 2.6

----------
assay: Phase I dose-escalating study, plasma pharmacokinetics in patients with solid tumor
Type: in vivo, human
conditions: human, plasma, 100 mg, 100 mg QD (4/1), C2D28 (n = 4), plasma; read-out: t½, mean (% CV) (converted)
experimental.endpoint: half-life

compound.string | experimental.endpoint | assay.value
Cc1[nH]c(/C=C2\C(=O)Nc3ccc(F)cc32)c(C)c1C(=O)NC[C@H](O)CN1CCOCC1 | half-life | 23 h

----------
assay: Phase I dose-escalating study, plasma pharmacokinetics in patients with solid tumor
Assay type: in vivo, human
conditions: human, plasma, 100 mg QD, 100 mg QD Continuous (n = 4), nominal time 8 h; read-out: Mean plasma concentration following the last dose on cycle 1 day 28
experimental.endpoint: concentration at 8 h

compound.string | assay.value
Cc1[nH]c(/C=C2\C(=O)Nc3ccc(F)cc32)c(C)c1C(=O)NC[C@H](O)CN1CCOCC1 | 395 ng/mL

----------
assay: Phase I dose-escalating study, plasma pharmacokinetics in patients with solid tumor
Format: in vivo, human
conditions: human, plasma, 25 mg, 25 mg QD (4/1), C1D1 (n = 6), plasma; read-out: Cmax, mean (% CV)

compound.string | quantity.unit | Cmax
Cc1[nH]c(/C=C2\C(=O)Nc3ccc(F)cc32)c(C)c1C(=O)NC[C@H](O)CN1CCOCC1 | ng/mL | 55.1

----------
assay: Phase I dose-escalating study, plasma pharmacokinetics in patients with solid tumor
Type: in vivo, human
conditions: human, plasma, 25 mg, 25 mg QD 4/1 (n = 6), nominal time 144 h; read-out: Mean plasma concentration following the last dose on cycle 1 day 28
experimental.endpoint: concentration at 144 h

compound.string | assay.value
Cc1[nH]c(/C=C2\C(=O)Nc3ccc(F)cc32)c(C)c1C(=O)NC[C@H](O)CN1CCOCC1 | 0.63 ng/mL

----------
assay: Phase I dose-escalating study, plasma pharmacokinetics in patients with solid tumor
Type: in vivo, human
conditions: human, plasma, oral, 25 mg, 25 mg QD 4/1 (n = 6), nominal time 4 h; read-out: Mean plasma concentration following the last dose on cycle 1 day 28
Description: Cmax values, or maximum total plasma concentrations, of a compound of formula 1 can be measured according to techniques well known to those skilled in the art. For example, after a compound of formula 1 has been administered to a mammal, blood samples can be taken at fixed time points over a period of time (e.g. 24 hours) and the serum or plasma concentration of compound of formula 1 can be measured using standard analytical techniques known in the art. […]
experimental.endpoint: concentration at 4 h (ng/mL)

compound.string | assay.value
Cc1[nH]c(/C=C2\C(=O)Nc3ccc(F)cc32)c(C)c1C(=O)NC[C@H](O)CN1CCOCC1 | 58.3

----------
assay: Phase I dose-escalating study, plasma pharmacokinetics in patients with solid tumor
Type: in vivo, human
conditions: human, plasma, 250 mg, 250 mg QD (4/1), C2D28 (n = 4), plasma; read-out: C(trough, 24 h), mean (% CV)

compound | concentration at 24 h / ng/mL
Cc1[nH]c(/C=C2\C(=O)Nc3ccc(F)cc32)c(C)c1C(=O)NC[C@H](O)CN1CCOCC1 [compound 1] | 279
